Test system: Salmonella 1335
Assay: Agar dilution antibacterial test (MIC)
Type: cell-based
Settings: read-out: MIC
Entries whose MIC is below 4 µg/mL take MET; entries at or above 4 µg/mL take NOT MET.

Illustrative cases are given below, each with its answer.
>>> class_assignment("N[C@@H](C(=O)N[C@@H]1C(=O)N2C(C(=O)O)=C(C(F)(F)F)CC[C@H]12)c1ccc(O)cc1 [Compound 2]")
"MET"
>>> class_assignment("N[C@@H](C(=O)N[C@@H]1C(=O)N2C(C(=O)O)=C(C(F)(F)F)CC[C@H]12)c1ccc(F)cc1 [Compound 3]")
"MET"
>>> class_assignment("N[C@@H](C(=O)N[C@@H]1C(=O)N2C(C(=O)O)=C(C(F)(F)F)CC[C@H]12)c1cccc(Br)c1 [Compound 7]")
"NOT MET"

Is MIC of N[C@@H](C(=O)N[C@@H]1C(=O)N2C(C(=O)O)=C(C(F)(F)F)CC[C@H]12)c1ccccc1 [Compound 1] strictly below 4 µg/mL?
MET
